B1: Twister Ribozyme (parent)
chain: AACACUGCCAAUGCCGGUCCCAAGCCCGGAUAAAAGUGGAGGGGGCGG

Variants of: B1
Assay: self-cleavage, relative activity (ratio to wild type); higher = more cleavage; co-transcriptional
Tick 1 if self-cleavage is 0.3 or greater. Tick 0 if self-cleavage is less than 0.3.

# mutantName, label
data = [
    ("C27U U37G", 1),
    ("A10C A40U", 0),
    ("A11G G16C", 1),
    ("C20U C26A", 0),
]

Assess whether reported self-cleavage for U12C C25G sits at 0.3 or higher. 1
